Value source: the supplement of paper PMC7595190

- Tested on: CMK
- METHOD_SUMMARY: CellTox Green cytotoxicity fluorescence relative to DMSO vehicle (fold of vehicle RFU); higher = more cell death (loss of membrane integrity), active = 2 or more
- REPORTED_CONDITIONS: 1 µM; 72 h
Decision: CellTox Green cytotoxicity fluorescence compared against 1; not below it gives rule met, below it gives rule not met.

Completed entries (count: 5):
INSERT INTO results (compound, assigned_class) VALUES
  ('Nc1ccccc1NC(=O)c1cnccn1', 'rule met'),
  ('C[C@H]1Oc2cc(cnc2N)-c2c(nn(C)c2C#N)CN(C)C(=O)c2ccc(F)cc21', 'rule met'),
  ('CCOC(=O)c1[nH]c2cc(Cl)ccc2c1C(C(=O)NC(C)(C)C)N(C=O)Cc1ccc(Cl)cc1 (stereo not given)', 'rule not met'),
  ('CCS(=O)(=O)N1CCN(c2ccc(Nc3ncc(C(N)=O)c(NC4CC4)n3)cc2)CC1 [Cerdulatinib]', 'rule met'),
  ('COc1cc(C(=O)O)ccc1NC(=O)[C@@H]1N[C@@H](CC(C)(C)C)[C@](C#N)(c2ccc(Cl)cc2F)[C@H]1c1cccc(Cl)c1F [Idasanutlin]', 'rule not met');

CellTox Green cytotoxicity fluorescence >= 1 for "CN(C)CC[C@H](CSc1ccccc1)Nc1ccc(S(=O)(=O)NC(=O)c2ccc(N3CCN(Cc4ccccc4-c4ccc(Cl)cc4)CC3)cc2)cc1[N+](=O)[O-]" ? rule met

CellTox Green cytotoxicity fluorescence >= 1 for c1ccc2c(CCNc3ccc(Nc4ccncc4)cc3)c[nH]c2c1 [Serdemetan] ? rule met

CellTox Green cytotoxicity fluorescence >= 1 for CCOC(=O)C1=C(N)Oc2ccc(Br)cc2C1C(C#N)C(=O)OCC (stereo not given) ? rule not met

CellTox Green cytotoxicity fluorescence >= 1 for CCN(CC)CCNC(=O)c1c(C)[nH]c(/C=C2\C(=O)Nc3ccc(F)cc32)c1C [Sunitinib] ? rule met

CellTox Green cytotoxicity fluorescence >= 1 for "CC(=NNC(=S)N1CCC1)c1ccccn1" ? rule met

CellTox Green cytotoxicity fluorescence >= 1 for CC(=O)O/N=C1/C(c2c(O)[nH]c3cc(Br)ccc23)=Nc2ccccc21 [BIO-acetoxime] ? rule met

CellTox Green cytotoxicity fluorescence >= 1 for "Cc1cccc(CC(=O)N2CCc3c2ccc(-c2cn(C)c4ncnc(N)c24)c3F)n1" ? rule not met

CellTox Green cytotoxicity fluorescence >= 1 for CNC(=O)c1ccc(Nc2ncc(C(F)(F)F)c(NCc3nccnc3N(C)S(C)(=O)=O)n2)cc1 [Defactinib] ? rule not met

CellTox Green cytotoxicity fluorescence >= 1 for "CN1CCN(Cc2ccc(Nc3ncc(Cl)c(Nc4ccccc4S(=O)(=O)N(C)C)n3)cc2)CC1" ? rule met

CellTox Green cytotoxicity fluorescence >= 1 for O=C(NS(=O)(=O)c1ccc(Br)s1)c1ccc(Cl)cc1Cl [Tasisulam] ? rule not met
